Data credit: patent US20210403591A1

Quick list: % double-positive cells vs WT per entry.
# System under test: T1, mTfR-1 N381A on Expi293 cells (mouse, UniProt Q62351 1-763)
# T1 construct: whole, on cells
# T1 sequence (Q62351 whole entry N381A): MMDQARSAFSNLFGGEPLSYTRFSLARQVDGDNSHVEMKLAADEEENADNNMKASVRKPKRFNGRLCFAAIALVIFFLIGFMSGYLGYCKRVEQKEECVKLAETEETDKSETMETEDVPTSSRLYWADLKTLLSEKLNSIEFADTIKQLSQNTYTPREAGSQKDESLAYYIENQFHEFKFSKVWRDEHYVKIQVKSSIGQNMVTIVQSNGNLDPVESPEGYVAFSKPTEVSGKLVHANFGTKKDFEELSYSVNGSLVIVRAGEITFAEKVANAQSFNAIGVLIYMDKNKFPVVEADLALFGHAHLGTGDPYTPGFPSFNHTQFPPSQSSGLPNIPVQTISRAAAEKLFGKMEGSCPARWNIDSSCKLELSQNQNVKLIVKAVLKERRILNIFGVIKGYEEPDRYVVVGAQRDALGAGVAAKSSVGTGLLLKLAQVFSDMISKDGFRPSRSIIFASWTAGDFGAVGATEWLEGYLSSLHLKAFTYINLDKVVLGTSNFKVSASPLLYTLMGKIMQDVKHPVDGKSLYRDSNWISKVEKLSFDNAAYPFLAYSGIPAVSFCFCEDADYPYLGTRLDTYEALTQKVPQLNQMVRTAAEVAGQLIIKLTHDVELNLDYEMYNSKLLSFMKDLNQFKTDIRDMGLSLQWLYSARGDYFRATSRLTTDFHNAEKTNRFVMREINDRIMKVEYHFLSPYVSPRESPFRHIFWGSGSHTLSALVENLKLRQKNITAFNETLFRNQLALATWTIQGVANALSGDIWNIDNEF
# Protocol summary: FACS, transfected Expi293 cells; mutant poorly expressed
Readout name: % double-positive cells vs WT (%)

[[record]]
binder = "Clone C VNAR-hFc fusion (Fc fusion, not shown: a dimerising Fc or GST, bivalent VNAR-Fc; also called Clone C-hFc) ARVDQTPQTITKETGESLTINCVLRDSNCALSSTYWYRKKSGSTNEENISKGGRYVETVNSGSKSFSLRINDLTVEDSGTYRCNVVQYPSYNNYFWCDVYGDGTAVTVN"
readout_name = "% double-positive cells vs WT"
result = 32

[[record]]
binder = "Clone C variant 18 VNAR-hFc (Fc fusion, not shown: a dimerising Fc or GST, also called Clone C v18; Clone C var; 18) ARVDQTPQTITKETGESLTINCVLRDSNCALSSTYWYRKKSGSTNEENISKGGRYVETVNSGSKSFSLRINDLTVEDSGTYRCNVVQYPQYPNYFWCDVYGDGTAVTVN"
readout_name = "% double-positive cells vs WT"
result = 0

[[record]]
binder = "Clone C variant 13 VNAR-hFc (Fc fusion, not shown: a dimerising Fc or GST, also called Clone C v13; Clone C var; 13) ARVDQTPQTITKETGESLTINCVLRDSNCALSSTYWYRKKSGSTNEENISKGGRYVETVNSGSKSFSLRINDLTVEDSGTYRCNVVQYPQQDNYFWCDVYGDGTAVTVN"
readout_name = "% double-positive cells vs WT"
result = 11

[[record]]
binder = "8D3 antibody (anti-mouse TfR-1 control; 8D3-hFc formatted antibody) (antibody, V domains shown) VH: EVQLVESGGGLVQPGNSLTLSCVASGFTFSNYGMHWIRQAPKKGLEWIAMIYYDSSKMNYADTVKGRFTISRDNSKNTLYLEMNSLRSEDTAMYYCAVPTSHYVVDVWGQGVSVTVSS VL: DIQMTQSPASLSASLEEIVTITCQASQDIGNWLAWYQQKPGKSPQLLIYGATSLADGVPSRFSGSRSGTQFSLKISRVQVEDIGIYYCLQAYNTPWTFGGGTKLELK"
readout_name = "% double-positive cells vs WT"
result = 26

